- System: Staphylococcus aureus
- method_summary: Antibacterial activity Staphylococcus aureus ATCC-25923 assessed as growth inhibition after 24 hrs by twofold serial dilution technique
- Format: functional
- condition_notes: ATCC-25923, 24 h
compounds and their reported MIC
Give the value; after it, write the unit.

Would you please look over these solved cases?
O=C1CSC(c2cccs2)N1n1c(Cc2ccccc2Nc2c(Cl)cccc2Cl)n[nH]c1=S (stereo not given) | 12.5 µM
COc1ccc(/C=N/n2c(Cc3ccccc3Nc3c(Cl)cccc3Cl)nn(CN3CCCCC3)c2=S)cc1OC | 12.5 µM
COc1ccc(/C=N/n2c(Cc3ccccc3Nc3c(Cl)cccc3Cl)nn(CN3CCOCC3)c2=S)cc1 | 6.25 µM
S=c1n(CN2CCCCC2)nc(Cc2ccccc2Nc2c(Cl)cccc2Cl)n1/N=C/c1ccco1 | 25 µM
CC1(C)S[C@@H]2[C@H](NC(=O)[C@H](N)c3ccccc3)C(=O)N2[C@H]1C(=O)O | 6.25 µM
O=c1c2ccccc2nc2n(/N=C/c3ccccc3)c(Cc3ccccc3Nc3c(Cl)cccc3Cl)nn12 | 12.5 µM

Problem: Quote Staphylococcus aureus MIC for entry O=c1c2ccccc2nc2n(/N=C/c3cccs3)c(Cc3ccccc3Nc3c(Cl)cccc3Cl)nn12 .
Solution: 12.5 µM

Problem: Quote Staphylococcus aureus MIC for entry COc1ccc(/C=N/n2c(Cc3ccccc3Nc3c(Cl)cccc3Cl)nn(CN3CCOCC3)c2=S)cc1OC .
Solution: 12.5 µM

Problem: Quote Staphylococcus aureus MIC for entry S=c1n(CN2CCCCC2)nc(Cc2ccccc2Nc2c(Cl)cccc2Cl)n1/N=C/c1ccccc1 .
Solution: 12.5 µM

Problem: Quote Staphylococcus aureus MIC for entry COc1ccc(/C=N/n2c(Cc3ccccc3Nc3c(Cl)cccc3Cl)nn3c(=O)c4ccccc4nc23)cc1 .
Solution: 100 µM

Problem: Quote Staphylococcus aureus MIC for entry COc1ccc(/C=N/n2c(Cc3ccccc3Nc3c(Cl)cccc3Cl)nn3c(=O)c4ccccc4nc23)cc1OC .
Solution: 12.5 µM

Problem: Quote Staphylococcus aureus MIC for entry COc1ccc(/C=N/n2c(Cc3ccccc3Nc3c(Cl)cccc3Cl)nn(CN3CCCCC3)c2=S)cc1 .
Solution: 12.5 µM

Problem: Quote Staphylococcus aureus MIC for entry O=c1c2ccccc2nc2n(/N=C/c3ccco3)c(Cc3ccccc3Nc3c(Cl)cccc3Cl)nn12 .
Solution: 12.5 µM

Problem: Quote Staphylococcus aureus MIC for entry S=c1n(CN2CCCCC2)nc(Cc2ccccc2Nc2c(Cl)cccc2Cl)n1/N=C/c1cccs1 .
Solution: 12.5 µM

Problem: Quote Staphylococcus aureus MIC for entry O=c1c2ccccc2nc2n(/N=C/c3ccncc3)c(Cc3ccccc3Nc3c(Cl)cccc3Cl)nn12 .
Solution: 100 µM

----------
- method_summary: Cytotoxicity against human HepG2 cells after 72 hrs by MTT assay
- Assay type: cell-based
observed_property: CC50 at 72 h (µM)
Form entry: value (µM) — number only.

Would you please look over these solved cases?
S=c1n(CN2CCCCC2)nc(Cc2ccccc2Nc2c(Cl)cccc2Cl)n1/N=C/c1ccco1 | 262
S=c1n(CN2CCOCC2)nc(Cc2ccccc2Nc2c(Cl)cccc2Cl)n1/N=C/c1cccs1 | 250

Proceeding to the next compound to report its CC50 at 72 h.
Problem: Return value of CC50 at 72 h for input COc1ccc(/C=N/n2c(Cc3ccccc3Nc3c(Cl)cccc3Cl)nn(CN3CCOCC3)c2=S)cc1OC , no commentary.
Solution: 282

----------
- Tested on: Mycobacterium tuberculosis
- method_summary: Antitubercular activity Mycobacterium tuberculosis H37Rv assessed as growth inhibition after 5 days by MABA method
- Format: functional
- condition_notes: Mycobacterium tuberculosis, H37Rv, 120 h
observed_property: log10 MIC (log10 of the value in µM)
Recall that a logarithmic scale is used here: each number is log10 of MIC in µM.

COc1ccc(/C=N/n2c(Cc3ccccc3Nc3c(Cl)cccc3Cl)nn(CN3CCCCC3)c2=S)cc1 | 1.10

Problem: Return value of log10 MIC for input O=C1CSC(c2ccccc2)N1n1c(Cc2ccccc2Nc2c(Cl)cccc2Cl)n[nH]c1=S (stereo unspecified) , no commentary.
Solution: 1.70

Problem: Return value of log10 MIC for input S=c1n(CN2CCCCC2)nc(Cc2ccccc2Nc2c(Cl)cccc2Cl)n1/N=C/c1cccs1 , no commentary.
Solution: 1.10

Problem: Return value of log10 MIC for input O=c1c2ccccc2nc2n(/N=C/c3ccccc3)c(Cc3ccccc3Nc3c(Cl)cccc3Cl)nn12 , no commentary.
Solution: 1.10

Problem: Return value of log10 MIC for input S=c1n(CN2CCOCC2)nc(Cc2ccccc2Nc2c(Cl)cccc2Cl)n1/N=C/c1ccccc1 , no commentary.
Solution: -0.70

Problem: Return value of log10 MIC for input COc1ccc(/C=N/n2c(Cc3ccccc3Nc3c(Cl)cccc3Cl)nn3c(=O)c4ccccc4nc23)cc1OC , no commentary.
Solution: 1.40

Problem: Return value of log10 MIC for input COc1ccc(/C=N/n2c(Cc3ccccc3Nc3c(Cl)cccc3Cl)nn(CN3CCOCC3)c2=S)cc1 , no commentary.
Solution: 0.80

Problem: Return value of log10 MIC for input COc1ccc(/C=N/n2c(Cc3ccccc3Nc3c(Cl)cccc3Cl)nn(CN3CCOCC3)c2=S)cc1OC , no commentary.
Solution: 0.80

Problem: Return value of log10 MIC for input S=c1n(CN2CCCCC2)nc(Cc2ccccc2Nc2c(Cl)cccc2Cl)n1/N=C/c1ccco1 , no commentary.
Solution: 0.80

Problem: Return value of log10 MIC for input O=c1c2ccccc2nc2n(/N=C/c3ccncc3)c(Cc3ccccc3Nc3c(Cl)cccc3Cl)nn12 , no commentary.
Solution: 1.40

----------
molecules and their reported MIC
- Test system: Escherichia coli
- method_summary: Antibacterial activity Escherichia coli ATCC-25922 assessed as growth inhibition after 24 hrs by twofold serial dilution technique
- Assay type: functional
- condition_notes: ATCC-25922, 24 h
Form entry: value (µM) — number only.

COc1ccc(C2SCC(=O)N2n2c(Cc3ccccc3Nc3c(Cl)cccc3Cl)n[nH]c2=S)cc1 (stereo unspecified) | 100
O=c1c2ccccc2nc2n(/N=C/c3ccncc3)c(Cc3ccccc3Nc3c(Cl)cccc3Cl)nn12 | 25
S=c1n(CN2CCCCC2)nc(Cc2ccccc2Nc2c(Cl)cccc2Cl)n1/N=C/c1ccccc1 | 12.5

Problem: Quote Escherichia coli MIC for entry COc1ccc(/C=N/n2c(Cc3ccccc3Nc3c(Cl)cccc3Cl)nn(CN3CCCCC3)c2=S)cc1OC .
Solution: 25

Problem: Quote Escherichia coli MIC for entry O=c1c2ccccc2nc2n(/N=C/c3ccco3)c(Cc3ccccc3Nc3c(Cl)cccc3Cl)nn12 .
Solution: 12.5

Problem: Quote Escherichia coli MIC for entry COc1ccc(C2SCC(=O)N2n2c(Cc3ccccc3Nc3c(Cl)cccc3Cl)n[nH]c2=S)cc1OC (stereo unspecified) .
Solution: 100

----------
compounds and their reported MIC
- Test system: Escherichia coli
- method_summary: Antibacterial activity Escherichia coli ATCC-25922 assessed as growth inhibition after 24 hrs by twofold serial dilution technique
- Assay type: functional
- condition_notes: ATCC-25922, 24 h
Form entry: value (µM) — number only.

S=c1n(CN2CCOCC2)nc(Cc2ccccc2Nc2c(Cl)cccc2Cl)n1/N=C/c1ccncc1 | 25

Proceeding to the next compound to report its MIC.
Problem: Return value of MIC for input COc1ccc(/C=N/n2c(Cc3ccccc3Nc3c(Cl)cccc3Cl)nn3c(=O)c4ccccc4nc23)cc1 , no commentary.
Solution: 100

----------
- Tested on: Staphylococcus aureus
- method_summary: Antibacterial activity Staphylococcus aureus ATCC-25923 assessed as growth inhibition after 24 hrs by twofold serial dilution technique
- Type: functional
- condition_notes: ATCC-25923, 24 h
molecules and their reported MIC
Give the value; after it, write the unit.

Would you please look over these solved cases?
S=c1n(CN2CCOCC2)nc(Cc2ccccc2Nc2c(Cl)cccc2Cl)n1/N=C/c1cccs1 | 6.25 µM
S=c1n(CN2CCOCC2)nc(Cc2ccccc2Nc2c(Cl)cccc2Cl)n1/N=C/c1ccncc1 | 12.5 µM
COc1ccc(C2SCC(=O)N2n2c(Cc3ccccc3Nc3c(Cl)cccc3Cl)n[nH]c2=S)cc1OC (stereo not given) | 100 µM
O=C1CSC(c2ccco2)N1n1c(Cc2ccccc2Nc2c(Cl)cccc2Cl)n[nH]c1=S (stereo not given) | 12.5 µM

Proceeding to the next molecule to report its MIC.
Problem: Return value of MIC for input O=C1CSC(c2ccncc2)N1n1c(Cc2ccccc2Nc2c(Cl)cccc2Cl)n[nH]c1=S (stereo not given) , no commentary.
Solution: 25 µM

----------
- Test system: Mycobacterium tuberculosis
- method_summary: Antitubercular activity Mycobacterium tuberculosis H37Rv assessed as growth inhibition after 5 days by MABA method
- Assay type: functional
- condition_notes: Mycobacterium tuberculosis, H37Rv, 120 h
Entries whose MIC is below 20 µM take true; entries at or above 20 µM take false.

Before answering, review these 2 worked examples.
S=c1n(CN2CCCCC2)nc(Cc2ccccc2Nc2c(Cl)cccc2Cl)n1/N=C/c1ccccc1 | true
O=c1c2ccccc2nc2n(/N=C/c3cccs3)c(Cc3ccccc3Nc3c(Cl)cccc3Cl)nn12 | true

Problem: Is the reported MIC for O=C1CSC(c2ccco2)N1n1c(Cc2ccccc2Nc2c(Cl)cccc2Cl)n[nH]c1=S (centres undefined) strictly below 20 µM?
Solution: false

Problem: Is the reported MIC for S=c1n(CN2CCOCC2)nc(Cc2ccccc2Nc2c(Cl)cccc2Cl)n1/N=C/c1cccs1 strictly below 20 µM?
Solution: true

Problem: Is the reported MIC for O=C1CSC(c2cccs2)N1n1c(Cc2ccccc2Nc2c(Cl)cccc2Cl)n[nH]c1=S (centres undefined) strictly below 20 µM?
Solution: false

Problem: Is the reported MIC for S=c1n(CN2CCCCC2)nc(Cc2ccccc2Nc2c(Cl)cccc2Cl)n1/N=C/c1ccncc1 strictly below 20 µM?
Solution: true

Problem: Is the reported MIC for COc1ccc(C2SCC(=O)N2n2c(Cc3ccccc3Nc3c(Cl)cccc3Cl)n[nH]c2=S)cc1OC (centres undefined) strictly below 20 µM?
Solution: false

Problem: Is the reported MIC for S=c1n(CN2CCOCC2)nc(Cc2ccccc2Nc2c(Cl)cccc2Cl)n1/N=C/c1ccncc1 strictly below 20 µM?
Solution: true

Problem: Is the reported MIC for COc1ccc(C2SCC(=O)N2n2c(Cc3ccccc3Nc3c(Cl)cccc3Cl)n[nH]c2=S)cc1 (centres undefined) strictly below 20 µM?
Solution: false

Source: ChEMBL document CHEMBL3352372
